Reference source: ChEMBL document CHEMBL1961873

- TARGET_ENTITY: Receptor-type tyrosine-protein kinase FLT3 (Homo sapiens) (UniProt P36888);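 further: values are mean percent inhibition of FLT3 kinase activity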
- Sequence (P36888 whole entry): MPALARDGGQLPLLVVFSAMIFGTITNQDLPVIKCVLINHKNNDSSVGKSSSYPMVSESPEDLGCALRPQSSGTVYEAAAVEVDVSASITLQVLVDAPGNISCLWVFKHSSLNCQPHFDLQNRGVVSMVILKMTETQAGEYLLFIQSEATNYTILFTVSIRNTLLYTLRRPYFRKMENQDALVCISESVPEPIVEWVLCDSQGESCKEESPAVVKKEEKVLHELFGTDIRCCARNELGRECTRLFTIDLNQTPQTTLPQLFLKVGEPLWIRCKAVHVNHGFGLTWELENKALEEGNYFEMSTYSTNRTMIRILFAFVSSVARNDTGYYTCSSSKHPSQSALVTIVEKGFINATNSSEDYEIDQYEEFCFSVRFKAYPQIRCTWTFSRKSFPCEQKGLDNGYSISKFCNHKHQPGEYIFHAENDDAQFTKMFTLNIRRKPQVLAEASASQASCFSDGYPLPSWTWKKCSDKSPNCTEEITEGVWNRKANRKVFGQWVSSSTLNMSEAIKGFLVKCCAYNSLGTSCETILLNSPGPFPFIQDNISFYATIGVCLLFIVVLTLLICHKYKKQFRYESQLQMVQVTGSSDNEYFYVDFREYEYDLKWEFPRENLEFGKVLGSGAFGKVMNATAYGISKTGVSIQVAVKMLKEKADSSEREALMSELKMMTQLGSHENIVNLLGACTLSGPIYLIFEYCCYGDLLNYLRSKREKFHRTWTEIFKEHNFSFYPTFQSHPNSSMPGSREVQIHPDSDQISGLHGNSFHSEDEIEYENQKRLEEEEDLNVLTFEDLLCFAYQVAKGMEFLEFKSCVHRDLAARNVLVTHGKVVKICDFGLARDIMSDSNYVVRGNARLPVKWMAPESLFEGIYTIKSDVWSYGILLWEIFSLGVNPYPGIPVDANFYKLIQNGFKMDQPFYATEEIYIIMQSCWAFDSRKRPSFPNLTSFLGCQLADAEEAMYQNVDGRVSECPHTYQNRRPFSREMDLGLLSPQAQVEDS
- EXPERIMENTAL_SETUP: at 1 µM
QUANTITY_NAME: inhibition (%)

{"MOLECULE": "Fc1cccc(COc2ccc(Nc3ncnc4cc(-c5ccc[nH]5)sc34)cc2Cl)c1", "TARGET_ENTITY": "Receptor-type tyrosine-protein kinase FLT3 (Homo sapiens) (UniProt P36888)", "UNIT_STRING": "%", "MEASURED_VALUE": 2.33}
{"MOLECULE": "Fc1cccc(COc2ccc(Nc3ncnc4sc(-c5cccs5)cc34)cc2Cl)c1", "TARGET_ENTITY": "Receptor-type tyrosine-protein kinase FLT3 (Homo sapiens) (UniProt P36888)", "UNIT_STRING": "%", "MEASURED_VALUE": 3.27}
{"MOLECULE": "Cc1nn(C)c2cc(N(C)c3ccnc(Nc4cccc(S(N)(=O)=O)c4)n3)ccc12", "TARGET_ENTITY": "Receptor-type tyrosine-protein kinase FLT3 (Homo sapiens) (UniProt P36888)", "UNIT_STRING": "%", "MEASURED_VALUE": 15.4}
{"MOLECULE": "CCn1c(-c2nonc2N)nc2c(C#CC(C)(C)O)nc(OC[C@@H](N)c3ccccc3)cc21", "TARGET_ENTITY": "Receptor-type tyrosine-protein kinase FLT3 (Homo sapiens) (UniProt P36888)", "UNIT_STRING": "%", "MEASURED_VALUE": -0.75}
{"MOLECULE": "COc1ccc(-c2ccncc2)cc1C(N)=O", "TARGET_ENTITY": "Receptor-type tyrosine-protein kinase FLT3 (Homo sapiens) (UniProt P36888)", "UNIT_STRING": "%", "MEASURED_VALUE": 2.52}
{"MOLECULE": "CC1=C(C(=O)Nc2ccc3[nH]ncc3c2)C(c2ccc3ccccc3c2)CC(=O)N1 (stereo unspecified)", "TARGET_ENTITY": "Receptor-type tyrosine-protein kinase FLT3 (Homo sapiens) (UniProt P36888)", "UNIT_STRING": "%", "MEASURED_VALUE": 3.17}
{"MOLECULE": "O=C(Nc1n[nH]c2nc(-c3ccco3)c(Br)cc12)C1CC1", "TARGET_ENTITY": "Receptor-type tyrosine-protein kinase FLT3 (Homo sapiens) (UniProt P36888)", "UNIT_STRING": "%", "MEASURED_VALUE": 2.62}
{"MOLECULE": "COc1cc2ncn(-c3cc(O[C@H](C)c4ccccc4Cl)c(C(N)=O)s3)c2cc1OC", "TARGET_ENTITY": "Receptor-type tyrosine-protein kinase FLT3 (Homo sapiens) (UniProt P36888)", "UNIT_STRING": "%", "MEASURED_VALUE": 24.8}
{"MOLECULE": "CCn1c(-c2nonc2N)nc2ccncc21", "TARGET_ENTITY": "Receptor-type tyrosine-protein kinase FLT3 (Homo sapiens) (UniProt P36888)", "UNIT_STRING": "%", "MEASURED_VALUE": 1.23}
{"MOLECULE": "[O-][S+]1CCN(Cc2ccc(-c3ccc4ncnc(Nc5ccc(OCc6ccccc6)c(F)c5)c4c3)o2)CC1", "TARGET_ENTITY": "Receptor-type tyrosine-protein kinase FLT3 (Homo sapiens) (UniProt P36888)", "UNIT_STRING": "%", "MEASURED_VALUE": 2.1}
{"MOLECULE": "NC(=O)c1ccc(-c2nc(-c3ccccn3)c(-c3ccc4c(c3)OCO4)[nH]2)cc1", "TARGET_ENTITY": "Receptor-type tyrosine-protein kinase FLT3 (Homo sapiens) (UniProt P36888)", "UNIT_STRING": "%", "MEASURED_VALUE": 2.37}
{"MOLECULE": "CCn1c(-c2nonc2N)nc2c(N3CCCC3)nccc21", "TARGET_ENTITY": "Receptor-type tyrosine-protein kinase FLT3 (Homo sapiens) (UniProt P36888)", "UNIT_STRING": "%", "MEASURED_VALUE": -2}
{"MOLECULE": "CS(=O)(=O)CCNCc1ccc(-c2ccc3ncnc(Nc4ccc(OCc5cccc(F)c5)c(C(F)(F)F)c4)c3c2)o1", "TARGET_ENTITY": "Receptor-type tyrosine-protein kinase FLT3 (Homo sapiens) (UniProt P36888)", "UNIT_STRING": "%", "MEASURED_VALUE": 1.21}
{"MOLECULE": "Nc1ncnc2occ(-c3ccc(NC(=O)Nc4cccc(C(F)(F)F)c4)cc3)c12", "TARGET_ENTITY": "Receptor-type tyrosine-protein kinase FLT3 (Homo sapiens) (UniProt P36888)", "UNIT_STRING": "%", "MEASURED_VALUE": 93.9}
{"MOLECULE": "Cc1cc(O)cc(C)c1/C=C/c1cncc(-c2nn[nH]n2)c1", "TARGET_ENTITY": "Receptor-type tyrosine-protein kinase FLT3 (Homo sapiens) (UniProt P36888)", "UNIT_STRING": "%", "MEASURED_VALUE": 4.37}
{"MOLECULE": "Cc1ccc(NC(=O)c2ccnc(N3CCCC3)c2)cc1-c1ccc(C(=O)NCC2CC2)cc1", "TARGET_ENTITY": "Receptor-type tyrosine-protein kinase FLT3 (Homo sapiens) (UniProt P36888)", "UNIT_STRING": "%", "MEASURED_VALUE": 7.31}
{"MOLECULE": "CCCN1CCC=C(c2ccc(Nc3nc(Nc4ccccc4C(N)=O)c4cc[nH]c4n3)c(C)c2)C1", "TARGET_ENTITY": "Receptor-type tyrosine-protein kinase FLT3 (Homo sapiens) (UniProt P36888)", "UNIT_STRING": "%", "MEASURED_VALUE": 9.96}
{"MOLECULE": "CCN1CCC(CC(=O)Nc2n[nH]c3nc(-c4cccs4)c(Br)cc23)CC1", "TARGET_ENTITY": "Receptor-type tyrosine-protein kinase FLT3 (Homo sapiens) (UniProt P36888)", "UNIT_STRING": "%", "MEASURED_VALUE": 9.19}
{"MOLECULE": "CS(=O)(=O)Nc1ccc(N/C=C2\\C(=O)Nc3ccccc32)cc1", "TARGET_ENTITY": "Receptor-type tyrosine-protein kinase FLT3 (Homo sapiens) (UniProt P36888)", "UNIT_STRING": "%", "MEASURED_VALUE": 74.1}
{"MOLECULE": "CC1=C(C(=O)Nc2ccc3[nH]ncc3c2)C(c2ccc(F)cc2)NC(=O)N1 (stereo unspecified)", "TARGET_ENTITY": "Receptor-type tyrosine-protein kinase FLT3 (Homo sapiens) (UniProt P36888)", "UNIT_STRING": "%", "MEASURED_VALUE": 0.62}
{"MOLECULE": "COc1ccccc1Nc1ncc(-c2ccccc2)o1", "TARGET_ENTITY": "Receptor-type tyrosine-protein kinase FLT3 (Homo sapiens) (UniProt P36888)", "UNIT_STRING": "%", "MEASURED_VALUE": 87.2}
